Measured values drawn from patent US11129835B2 for this set.

target: UniProtKB Q13526; test: Pin1 fluorescence polarization competition assay with Tamra-probe (secondary)
ATTRIBUTE_MEASURED: pIC50
The value called pIC50 is obtained by taking minus log10 of the concentration in mol/L.

Look over these answered cases.
Record O=C(O)c1cc2cccc([N+](=O)[O-])c2[nH]1 / UniProtKB Q13526, pIC50 recorded as 4.92

Readout pIC50 for Cc1ccc(NC(=O)CN(C)C(=O)c2cccc(-n3cccc3)c2)cc1 , test system UniProtKB Q13526, was 4.52

Further cases:
Entry O=C(O)c1[nH]c2ccccc2c1C(c1cc(Cl)cc([N+](=O)[O-])c1O)c1c(C(=O)O)[nH]c2ccccc12 ; assay system UniProtKB Q13526; pIC50 recorded at 4.62

Entry COc1ccc(NS(=O)(=O)c2ccc3c(c2)[C@H]2C=CC[C@H]2[C@@H](c2ccc(C(=O)O)cc2)N3)cc1 ; assay system UniProtKB Q13526; pIC50 recorded at 4.62

Tested on UniProtKB Q13526: Cc1cc(C(=O)NCc2ccc(C(=O)O)o2)c(C)o1 . Observed pIC50: 5.00

Kindly note: UniProtKB Q13526, Cc1ccc(C(=O)c2no[n+]([O-])c2C(=O)c2ccc(C)cc2)cc1 , pIC50 value reported: 7.00

pIC50 on UniProtKB Q13526 for CCCCOc1ccc(C(=O)N/C(=C/c2cccc([N+](=O)[O-])c2)C(=O)O)cc1 is 4.72

pIC50 of COc1ccc(C(=O)c2no[n+]([O-])c2C(=O)c2ccc(OC)cc2)cc1 , assay on UniProtKB Q13526, is 6.72

====

Below, each of the molecules is paired with its reported Emax value.
target: Pin1 (Homo sapiens); assay: Pin1 fluorescence polarization competition assay, primary qHTS (HiFluor-488 / Alexa488 probe); settings: read-out: Average HTS Efficacy;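 note: Pin1 protein with fluorescent peptide probe, compound displacement read by fluorescence polarization, percent inhibition derived from corrected polarization values, concentration-response curves in 1536-well format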
# number only, unit % dropped from output

Observe how each entry below is paired with its result.
Form field Emax, entry O=C(O)CCCNC(=O)/C=C/c1ccco1 : 64

The molecule identified as C=CCOc1ccc(C(c2c(C(=O)O)[nH]c3ccccc23)c2c(C(=O)O)[nH]c3ccccc23)cc1 registered its Emax at 81

Emax for O=C(c1cccs1)c1no[n+]([O-])c1C(=O)c1cccs1 is 94

The reported Emax of the molecule O=C(O)Cc1c[nH]c2cccc(O)c12 was 77

# Emax (molecule: CCCCCC(=O)Nc1cc(S(=O)(=O)O)cc2cc(S(=O)(=O)O)cc(O)c12 ) is 77

Further cases:
Noted for N#Cc1no[n+]([O-])c1C(=O)c1cccs1 : its Emax reads 80

Form: molecule = O=C(O)C1Nc2c(C(F)(F)F)ccc(Cl)c2C2C=CCC12 (stereo not drawn) ; Emax = 74

Memo: COc1cc(/C=C2\SC(=O)N(c3ccc(Cl)cc3)C2=O)cc([N+](=O)[O-])c1O , reported Emax: 101

In plain terms, Cc1ccc(C)n1-c1cccc(C(=O)O)c1 has a documented Emax of 79

Value of measured Emax for the entry COc1ccc(S(=O)(=O)N2CCN(C(=O)c3cc4c(s3)CCC4)CC2)cc1 : 108

====

Alexa488 Reconfirmed Curve Class by entry:
biological target: Pin1 (Homo sapiens, UniProt Q13526); test: confirmatory Pin1 fluorescence polarization competition assay (Alexa488 reconfirmed); conditions: confirmatory retest;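 note: Pin1 competition with a HiFluor488-labelled peptide probe, read as fluorescence polarization after 10 min at room temperature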
Sequence (Q13526 whole entry): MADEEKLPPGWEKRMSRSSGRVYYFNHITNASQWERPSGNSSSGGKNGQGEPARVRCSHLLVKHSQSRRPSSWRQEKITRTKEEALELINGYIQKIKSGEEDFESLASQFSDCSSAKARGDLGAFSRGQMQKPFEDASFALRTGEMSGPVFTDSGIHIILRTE

Alexa488 Reconfirmed Curve Class for O=C(O)CCCNC(=O)/C=C/c1ccco1 [Compound 19] is 1.2 (≤80% (class 1.2))

Continuing:
get_value(item= COC(=O)COc1ccc(C2Nc3c(Cl)ccc(C(=O)O)c3C3C=CCC32)cc1 (stereo not drawn) [Compound 42] , readout=Alexa488 Reconfirmed Curve Class) returns 2.2 (≤80% (class 2.2))

Memo: CCCCOc1ccc(C(=O)N/C(=C/c2cccc([N+](=O)[O-])c2)C(=O)O)cc1 [Compound 36] , reported Alexa488 Reconfirmed Curve Class: 2.2 (≤80% (class 2.2))

For reference, reported Alexa488 Reconfirmed Curve Class for O=C(O)c1cc2cccc([N+](=O)[O-])c2[nH]1 [Compound 22] stands at 2.2 (≤80% (class 2.2))

Record summary for O=C(O)c1cc(Cl)c2c(c1)[C@@H]1C=CC[C@@H]1[C@H](c1ccc(S(=O)(=O)N3CCOCC3)cc1)N2 [Compound 41] : reported Alexa488 Reconfirmed Curve Class = 2.2 (≤80% (class 2.2))

Lab note: COc1cc(C(c2c(C(=O)O)[nH]c3ccccc23)c2c(C(=O)O)[nH]c3ccccc23)ccc1OCc1ccccc1 [Compound 47] gave Alexa488 Reconfirmed Curve Class of 2.2 (≤80% (class 2.2))

Record summary for Cc1ccc(C)c2c1NC(C(=O)O)C1CC=CC21 (stereo not drawn) [Compound 7] : reported Alexa488 Reconfirmed Curve Class = 2.2 (≤80% (class 2.2))

Field Alexa488 Reconfirmed Curve Class (entry O=C(O)c1[nH]c2ccccc2c1C(c1cc(Cl)cc([N+](=O)[O-])c1O)c1c(C(=O)O)[nH]c2ccccc12 [Compound 44] ) reads 2.2 (≤80% (class 2.2))

Entry O=C(O)c1cccc2c1NC(C(=O)O)C1CC(Sc3ccccc3[N+](=O)[O-])C(Cl)C21 (stereo not drawn) [Compound 3] — recorded Alexa488 Reconfirmed Curve Class = 1.2 (≤80% (class 1.2))

Notebook: O=C(O)C1Nc2c(C(F)(F)F)ccc(Cl)c2C2C=CCC12 (stereo not drawn) [Compound 8] , Alexa488 Reconfirmed Curve Class read as 2.2 (≤80% (class 2.2))

molecule O=C(O)C1Nc2c(Cl)cc(Cl)c(Cl)c2C2C=CCC12 (stereo not drawn) [Compound 5] , Alexa488 Reconfirmed Curve Class observed: 1.2 (≤80% (class 1.2))

So, CC(C)COc1ccc(C(=O)N/C(=C\c2cccc([N+](=O)[O-])c2)C(=O)O)cc1 [Compound 37] ? Its Alexa488 Reconfirmed Curve Class was 2.2 (≤80% (class 2.2))

GET /value?item= COc1ccccc1Nc1ccc2c(O)cc(S(=O)(=O)O)cc2c1 [Compound 14] &field=Alexa488 Reconfirmed Curve Class returns 1.2 (≤80% (class 1.2))

Reported Alexa488 Reconfirmed Curve Class of O=C(c1ccc(=O)oc1)N1CCOCC1 [Compound 20] : 1.2 (≤80% (class 1.2))

Alexa488 Reconfirmed Curve Class reported for this molecule O=S(=O)(O)c1cc(O)c2cc(Nc3ccccc3)ccc2c1 [Compound 15] : 2.2 (≤80% (class 2.2))
